Kindly state pEC50 for each of the entries shown.
target: Voltage-gated potassium channel, KQT; KCNQ2(Kv7.2)/KCNQ3(Kv7.3) (Homo sapiens, UniProt O43525+O43526); assay: Agonist activity at human KCNQ2/3 transfected in human HEK293 cells incubated for 30 mins by fluorimetric assay; assay type: cell-based
Sequence (O43526 whole entry): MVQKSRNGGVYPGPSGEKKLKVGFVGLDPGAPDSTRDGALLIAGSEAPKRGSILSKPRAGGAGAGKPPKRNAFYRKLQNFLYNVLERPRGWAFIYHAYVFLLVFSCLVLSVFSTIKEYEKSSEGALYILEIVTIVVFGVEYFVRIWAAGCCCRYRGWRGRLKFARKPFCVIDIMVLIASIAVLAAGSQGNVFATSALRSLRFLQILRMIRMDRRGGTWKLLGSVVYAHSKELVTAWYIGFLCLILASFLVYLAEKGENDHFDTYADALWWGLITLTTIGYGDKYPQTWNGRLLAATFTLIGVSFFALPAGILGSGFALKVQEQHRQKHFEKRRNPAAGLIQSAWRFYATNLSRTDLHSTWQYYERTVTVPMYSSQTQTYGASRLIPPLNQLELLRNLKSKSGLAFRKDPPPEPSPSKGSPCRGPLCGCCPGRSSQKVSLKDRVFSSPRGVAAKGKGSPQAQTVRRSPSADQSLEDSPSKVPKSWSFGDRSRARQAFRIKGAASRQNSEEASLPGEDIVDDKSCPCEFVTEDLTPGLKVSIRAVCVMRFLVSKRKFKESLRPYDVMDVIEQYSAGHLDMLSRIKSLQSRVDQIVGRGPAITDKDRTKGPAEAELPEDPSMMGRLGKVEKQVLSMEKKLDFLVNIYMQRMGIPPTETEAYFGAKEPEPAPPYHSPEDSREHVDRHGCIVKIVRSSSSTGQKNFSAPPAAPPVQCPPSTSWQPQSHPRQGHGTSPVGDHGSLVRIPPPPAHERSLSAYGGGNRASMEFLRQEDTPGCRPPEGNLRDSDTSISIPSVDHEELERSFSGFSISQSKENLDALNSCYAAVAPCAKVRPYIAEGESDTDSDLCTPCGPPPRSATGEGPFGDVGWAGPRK
Sequence (O43525 whole entry): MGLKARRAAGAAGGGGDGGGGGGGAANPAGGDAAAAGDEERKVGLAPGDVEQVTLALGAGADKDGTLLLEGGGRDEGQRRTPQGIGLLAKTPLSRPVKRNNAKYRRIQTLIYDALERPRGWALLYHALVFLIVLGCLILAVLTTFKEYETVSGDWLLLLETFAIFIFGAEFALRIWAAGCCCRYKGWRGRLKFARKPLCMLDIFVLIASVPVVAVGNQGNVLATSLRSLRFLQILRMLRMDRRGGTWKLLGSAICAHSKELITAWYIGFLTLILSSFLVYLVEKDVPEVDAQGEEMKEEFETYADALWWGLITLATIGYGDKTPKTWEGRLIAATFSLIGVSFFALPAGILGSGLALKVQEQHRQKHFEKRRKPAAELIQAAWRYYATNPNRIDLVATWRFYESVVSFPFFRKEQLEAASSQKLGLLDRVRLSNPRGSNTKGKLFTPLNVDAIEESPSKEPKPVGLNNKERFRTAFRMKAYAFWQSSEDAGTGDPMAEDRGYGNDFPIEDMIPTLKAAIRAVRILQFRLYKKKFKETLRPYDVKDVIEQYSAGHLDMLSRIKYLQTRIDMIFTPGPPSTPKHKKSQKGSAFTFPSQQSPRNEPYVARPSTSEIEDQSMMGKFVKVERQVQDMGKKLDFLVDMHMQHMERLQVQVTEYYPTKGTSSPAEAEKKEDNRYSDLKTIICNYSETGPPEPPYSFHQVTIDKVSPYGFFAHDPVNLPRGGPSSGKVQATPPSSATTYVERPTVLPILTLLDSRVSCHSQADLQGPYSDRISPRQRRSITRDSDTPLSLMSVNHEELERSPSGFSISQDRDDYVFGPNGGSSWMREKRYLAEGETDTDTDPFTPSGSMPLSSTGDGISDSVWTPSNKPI
Answers are plain numbers, as −log10 of the molar value.

Worked examples follow.
                                   compound  measurement_name  experimental_value
0     Nc1ccc(OCc2ccc(F)cc2)nc1NC(=O)C1CCCC1             pEC50                3.88
1           CC(=O)Nc1cc(OCc2ccc(F)cc2)ccc1N             pEC50                4.87
2        COc1ccc(COc2ccc(N)c(NC(C)=O)n2)cc1             pEC50                4.87
3  CCOC(=O)Nc1ccc(NCc2ccc(F)cc2)nc1N [FLUPIRTINE]             pEC50                5.72
4       Nc1ccc(OCc2ccc(F)cc2)cc1NC(=O)C1CC1             pEC50                4.52

Hey, quick one: what's pEC50 for each of these?
1. Nc1ccc(OCc2ccc(F)cc2)nc1N1CCCC1=O
2. CC(=O)Nc1ccc(OCc2ccc(F)cc2)nc1NC(C)=O
3. CCC(=O)Nc1nc(OCc2ccc(F)cc2)ccc1N
4. CCOC(=O)Nc1ccc(OCc2ccc(F)cc2)nc1NC(C)=O
5. Nc1ccc(OCc2ccc(F)cc2)cc1NC(=O)c1ccccc1
6. CC(=O)Nc1nc(OCc2ccncc2)ccc1N
7. CC(=O)Nc1nc(OCc2ccc3c(c2)OCO3)ccc1N

[4.90, 5.12, 4.86, 5.21, 3.71, 4.45, 3.89]

Just so you know, measured pEC50 for `Nc1ccc(OCc2ccc(F)cc2)nc1NC(=O)c1ccccc1` came out at 4.01
